Molecular target: Trace amine-associated receptor 1 (Homo sapiens)
Test: blockers of beta-PEA-driven TAAR1 calcium signal – Fluo-8 calcium fluorescence, CHO RD-HGA16 cells, primary screen (AID 624466);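 note: 0% = DMSO plus EC80 beta-PEA response and 100% = DMSO alone without agonist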
Conditions: CHO RD-HGA16 TAAR1, Fluo-8 calcium fluorescence, antagonist; at 3 µM; stronger effect = higher value
In all, about 360,000 compounds went through this assay and about 5,400 (1.5%) were called active. The sample as a whole holds a higher share of actives than the screen did.
Listing: inhibition of selected compounds
measured metric: inhibition

| compound | system name | readout value |
| --- | --- | --- |
| CC(C)[C@@H](C)/C=C/[C@@H](C)[C@H]1CC[C@@H]2[C@]1(C)CCC1[C@]23C=C[C@]2(C[C@@H](O)CC[C@]12C)N(c1ccc([N+](=O)[O-])cn1)O3 (stereo not given in full) | Trace amine-associated receptor 1 (Homo sapiens) | -12% (inactive) |
| COC(=O)c1sccc1NC(=O)c1cc(OC)c(OC)c(OC)c1 | Trace amine-associated receptor 1 (Homo sapiens) | 52.3% (active) |
| COc1cc(SC#N)ccc1N=Cc1c(C)[nH]n(-c2ccc(C)cc2)c1=O | Trace amine-associated receptor 1 (Homo sapiens) | 87.5% (active) |
| COc1ccc(/C=C/C(=O)Nc2ccc(C34CC5CC(CC(O)(C5)C3)C4)cc2)cc1OC | Trace amine-associated receptor 1 (Homo sapiens) | 71.5% (active) |
| CC(=O)N1Cc2cc(C(=O)NCc3cccc(F)c3)nc(-c3cccc(C4=CCCC4)c3)c2[C@H]1CCO | Trace amine-associated receptor 1 (Homo sapiens) | -5.18% (inactive) |
| COc1ccc(Cc2nnc(NC(=O)c3cc(OC)c(OC)c(OC)c3)s2)cc1OC | Trace amine-associated receptor 1 (Homo sapiens) | -43.4% (inactive) |
| Cc1ccn2c(=O)c(C(=O)NCCC3=CCCCC3)c(O)nc2c1 | Trace amine-associated receptor 1 (Homo sapiens) | 64.5% (active) |
| c1ccc(CSc2ncnc3c2sc2nc(N4CCOCC4)c4c(c23)CCCC4)cc1 | Trace amine-associated receptor 1 (Homo sapiens) | -16.6% (inactive) |
| O=C(NCc1cccc(Cl)c1)C1CCN(c2nnc(N3CCCC3=O)s2)CC1 | Trace amine-associated receptor 1 (Homo sapiens) | 1.44% (inactive) |
| O=C(NCCC1=CCCCC1)c1ccc(-n2cncn2)cc1 | Trace amine-associated receptor 1 (Homo sapiens) | -0.95% (inactive) |

* * *

Target: Trace amine-associated receptor 1 (Homo sapiens) (UniProt Q96RJ0)
Sequence (Q96RJ0 whole entry, looked up): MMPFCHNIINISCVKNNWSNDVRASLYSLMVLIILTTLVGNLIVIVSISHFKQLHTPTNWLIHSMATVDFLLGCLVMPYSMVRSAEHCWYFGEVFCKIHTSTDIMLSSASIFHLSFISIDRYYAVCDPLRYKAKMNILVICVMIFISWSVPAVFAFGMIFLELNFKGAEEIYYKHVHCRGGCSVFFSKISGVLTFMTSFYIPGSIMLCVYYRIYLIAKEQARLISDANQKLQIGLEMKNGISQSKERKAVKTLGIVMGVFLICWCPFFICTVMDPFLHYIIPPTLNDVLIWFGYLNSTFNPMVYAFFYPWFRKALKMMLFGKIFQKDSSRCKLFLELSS
Assay: blockers of beta-PEA-driven TAAR1 calcium signal – Fluo-8 calcium fluorescence, CHO RD-HGA16 cells, primary screen (AID 624466);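 note: 0% = DMSO plus EC80 beta-PEA response and 100% = DMSO alone without agonist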
Settings: CHO RD-HGA16 TAAR1, Fluo-8 calcium fluorescence, antagonist; at 3 µM; stronger effect = higher value
About 5,400 (1.5%) of roughly 360,000 compounds were called active. The sample holds actives, similar compounds and a random draw of the others, so the mix is not that of the screen.
measured metric: inhibition

| molecule | readout value |
| --- | --- |
| COc1ccc(-c2cc(C(=O)Nc3ccccc3O)c3ccccc3n2)cc1 | 86.9% (active) |
| C/C(=N\NC(=O)c1cc(-c2ccc(O)cc2)nc2ccccc12)c1cccnc1 | -2.53% (inactive) |
| CC(NCC(=O)Nc1cc(Cl)cc(Cl)c1)c1ccccc1 (stereo unspecified) | 3.33% (inactive) |
| O=C(O)C1C2C=CC(O2)C1C(=O)NCCc1cccc(Cl)c1 (stereo unspecified) | 70.5% (active) |
| CC1(C)OC(=O)C2=C(C[C@@H](C3CC3)O[C@H]2CCc2cccc(Cl)c2)O1 | -4.58% (inactive) |
| CCOc1ccc(N2CC(C(=O)N/N=C/c3sccc3C)CC2=O)cc1 (stereo unspecified) | 105% (active) |
| COc1ccc(NC(=O)c2cc(-c3ccc(C)o3)nc3ccccc23)cc1 | 57.4% (active) |
| CCCCCCCCN1C(=O)[C@H](CC(=O)NCC23CC4CC(CC(C4)C2)C3)C[C@@]2(C(=O)OC)CCCCC=C12 | -15.3% (inactive) |
| Cc1nc(N2CCN(c3ccccn3)CC2)c2c(C)c(C(=O)Nc3ccc(F)cc3)sc2n1 | 58% (active) |
| Cc1ccc(N2CC(C(=O)N3CCC4(CC3)CC(=O)c3ccccc3O4)CC2=O)cc1C (stereo unspecified) | -12.3% (inactive) |
| COc1cccc(NC(=O)CN(C)C(=O)c2cc(Cl)nc3ccccc23)c1 | 18.8% (inactive) |
| Cc1ccc2nc(-c3ccncc3)cc(C(=O)Nc3ccc(OC(F)F)cc3)c2c1 | -4.36% (inactive) |
| O=C(O)c1ccc(-n2cccc2)cc1O | 6.36% (inactive) |
| CCOc1ccc(-n2cnc3c(=O)[nH]c(N)nc32)cc1 | 0.45% (inactive) |
| CN1CCCCC(NC(=O)C(C)(C)C)C1=O (stereo unspecified) | -14% (inactive) |
| Cc1ccc(CC2CC(=O)N(c3cc(C)ccc3C)C2=O)cc1 (stereo unspecified) | -18.2% (inactive) |
| CCCCN(C(=O)c1cccc(N2C(=O)c3ccccc3C2=O)c1)c1c(N)n(CCCC)c(=O)[nH]c1=O | 5.52% (inactive) |
| CC(C)(C)SCCNC(=O)c1cccc([N+](=O)[O-])c1 | -20.6% (inactive) |
| Cc1nc(N2CCOCC2)c2c(C)c(C(=O)Nc3ccc(C(F)(F)F)cc3)sc2n1 | 15.7% (inactive) |
| COC(=O)C[C@@H]1C=C[C@@H](NC(=O)c2ccc3c(c2)OCO3)[C@@H](CO)O1 | 8.18% (inactive) |
| COc1ccc(NC(=O)c2cc(-c3cc(OC)c(OC)c(OC)c3)nc3ccccc23)c(OC)c1 | 3.05% (inactive) |
